The reported measurements were obtained from PubChem BioAssay (NCI).

system: NCI-H522 lung; assay: NCI-60 one-dose screen, 48 h (100 = growth as untreated, 0 = no growth, -100 = all killed); conditions: 10 µM unless noted
Compounds without any hit were thinned out: in the full panel of roughly 83,000, 20% have a hit.
Could you please report measured growth for the items listed next?
Give bare numbers, in %.

>>> df
                                   compound  measure  result_number
0  COc1cc(CNC(=O)/C=C/c2ccccc2)ccc1OCC(=O)NO   growth           89.9
1  O=c1cc(-c2ccccc2)nc2sc(-c3c[nH]c4ccc(Br)cc34)nn12   growth           86.2
2  O=C(N/N=C\c1ccc(Cl)cc1)c1ccc2nc(-c3ccc(Br)cc3)[nH]c2c1   growth           10.5
3  CCN1CCN(c2cc(C(=O)Nc3nc4ccc(Oc5ccnc(C(=O)NC)c5)cc4s3)cc(C(F)(F)F)c2)CC1   growth           78.7

Batch request: growth for each of the following molecules.
1. Cc1nc(-c2cc3ccccc3c(N3CCN(C)CC3)n2)cs1
2. O=C(Nc1cc(F)cc2cccnc12)c1cnc(N2CCOCC2)cn1
3. O=C(NNc1nc2cc(F)cc(F)c2n2cccc12)c1ncccn1
4. Nc1ccc(-c2nnc(SCc3ccc(O)c4ncccc34)n2-c2ccccc2)cc1
5. Nc1nc(-c2cccc([N+](=O)[O-])c2)c(N=Nc2ccccc2[N+](=O)[O-])s1
6. C=CCn1c(SCC(=O)c2ccc(OC)cc2)nnc1-c1ccc(OC)cc1

A:
1: 94; 2: 15.2; 3: -2.87; 4: 17.5; 5: 26.4; 6: 99
